The reported measurements were obtained from PubChem BioAssay (NCI).

- Tested on: RPMI-8226 leukemia
- ASSAY: NCI tumour cell line growth inhibition, 48 h
OUTCOME MEASURE: TGI

Please review the entries below; each comes with its answer.
S=P1(c2ccccc2)Nc2ccc(Cl)cc2N1 (stereo not given) :: > 100 µM
CC(C)/C(Cl)=N\OC(=O)Nc1ccc(F)c([N+](=O)[O-])c1 :: 4.87 µM
COc1ccc(C(=O)/C=C/c2ccc(OCC(=O)O)cc2)cc1 :: > 100 µM
C=C(C)[C@@H]1CC[C@]2(C(=O)O)CC[C@]3(C)[C@H](CC[C@@H]4[C@@]5(C)C[C@@H](CC#Cc6ccc(Br)cc6)C(=O)C(C)(C)[C@@H]5CC[C@]43C)[C@@H]12 :: > 100 µM
Cc1cc(Cl)ccc1NC(=O)CC1SC(N)=NC1=O (stereo not given) :: > 100 µM
COc1cc(/C=C/c2sc3ccccc3[n+]2C)ccc1N(C)C :: 16.2 µM
CS(=O)(=O)Nc1cccc(-c2ccc3c(NC(=O)C4CC4)n[nH]c3c2)c1 :: > 25 µM
CC(=O)O[C@H]1[C@H](OC(C)=O)[C@@H](CN=[N+]=[N-])OCO[C@@H]1CN=[N+]=[N-] :: > 100 µM

Problem: For NC(CCCCN=Cc1nc(-c2ccccc2)oc1O)C(=O)O (stereo not given) , what is its reported TGI?
Result: > 100 µM

Problem: Also, CCn1c(-c2ccccc2)nc2c1C(=O)c1ccccc1C2=O please.
Result: > 100 µM
